Values from patent US7662810B2

Biological target: Dihydropeptidase-1 (DHP-1) (Sus scrofa)
Sequence (P22412 17-384): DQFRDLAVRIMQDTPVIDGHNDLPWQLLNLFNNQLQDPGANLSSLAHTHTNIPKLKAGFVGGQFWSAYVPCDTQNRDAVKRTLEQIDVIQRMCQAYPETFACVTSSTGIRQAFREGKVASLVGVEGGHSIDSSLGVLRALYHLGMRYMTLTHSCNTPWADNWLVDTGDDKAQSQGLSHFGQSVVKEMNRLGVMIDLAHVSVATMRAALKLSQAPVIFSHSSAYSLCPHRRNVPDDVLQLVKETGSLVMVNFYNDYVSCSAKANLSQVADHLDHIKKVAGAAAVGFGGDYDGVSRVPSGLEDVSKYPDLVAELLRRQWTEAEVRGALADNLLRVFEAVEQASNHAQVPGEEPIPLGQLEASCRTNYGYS
ATTRIBUTE_MEASURED: T1/2 (time when the concentration of the medicament become the half)
Answers are plain numbers.

Here is how some molecules turned out for T1/2 (time when the concentration of the medicament become the half).
>>> reported("COc1ccccc1CN1CC(SC2=C(C(=O)[O-])N3C(=O)[C@H]([C@@H](C)O)[C@H]3[C@H]2C)C1.[K+] [Exam. 16]")
200.91
>>> reported("C[C@@H](O)[C@H]1C(=O)N2C(C(=O)[O-])=C(SC3CN(Cc4cccc(C(F)(F)F)c4)C3)[C@H](C)[C@H]12.[K+] [Exam. 20]")
16.03
>>> reported("COc1ccc(CN2CC(SC3=C(C(=O)[O-])N4C(=O)[C@H]([C@@H](C)O)[C@H]4[C@H]3C)C2)cc1.[K+] [Exam. 14]")
19.88

I need T1/2 (time when the concentration of the medicament become the half) for every entry listed below, if you could help.
1. Cc1ccc(CN2CC(SC3=C(C(=O)[O-])N4C(=O)[C@H]([C@@H](C)O)[C@H]4[C@H]3C)C2)cc1.[K+] [Exam. 23]
2. C[C@@H](O)[C@H]1C(=O)N2C(C(=O)[O-])=C(SC3CN([C@@H](C)c4ccccc4)C3)[C@H](C)[C@H]12.[K+] [Exam. 22]
3. C[C@@H](O)[C@H]1C(=O)N2C(C(=O)[O-])=C(SC3CN(Cc4ccc(F)cc4)C3)[C@H](C)[C@H]12.[K+] [Exam. 19]
4. CC(c1ccc(Br)cc1)N1CC(SC2=C(C(=O)[O-])N3C(=O)[C@H]([C@@H](C)O)[C@H]3[C@H]2C)C1.[K+] (stereo partly shown) [Exam. 24]

(A)
25.24
65.99
28.16
19.71

###

Reported T1/2 (time when the concentration of the medicament become the half) for target or system UniProt:P22412, by entry.
Answers are plain numbers.

Here is how some compounds turned out for T1/2 (time when the concentration of the medicament become the half).
>>> reported("COc1cccc(CN2CC(SC3=C(C(=O)[O-])N4C(=O)[C@H]([C@@H](C)O)[C@H]4[C@H]3C)C2)c1.[K+] [Exam. 15]")
28.16
>>> reported("C[C@@H](O)[C@H]1C(=O)N2C(C(=O)[O-])=C(SC3CN(Cc4ccccc4)C3)[C@H](C)[C@H]12.[K+] [Exam. 13]")
19.28
>>> reported("C[C@@H](O)[C@H]1C(=O)N2C(C(=O)[O-])=C(SC3CN(Cc4ccc(Cl)cc4)C3)[C@H](C)[C@H]12.[K+] [Exam. 18]")
15.36
>>> reported("COc1ccc(CN2CC(SC3=C(C(=O)[O-])N4C(=O)[C@H]([C@@H](C)O)[C@H]4[C@H]3C)C2)cc1OC.[K+] [Exam. 17]")
27.45

Let us move to another entry and its T1/2 (time when the concentration of the medicament become the half).
(Q) Give recorded T1/2 (time when the concentration of the medicament become the half). C[C@H](c1ccccc1)N1CC(SC2=C(C(=O)[O-])N3C(=O)[C@H]([C@@H](C)O)[C@H]3[C@H]2C)C1.[K+] [Exam. 21]
(A) 38.43

###

Test system: Staphylococcus aureus 208E
Assay: Measurement of Minimum Inhibitory Concentration (MIC), MRSA
Format: cell-based
Conditions: Staphylococcus aureus 208E
Give measured MIC for each item. Keep answers brief.
Please format your answer as a value with the unit trailing.

I need MIC for every entry listed below, if you could help.
1. COc1ccccc1CN1CC(SC2=C(C(=O)[O-])N3C(=O)[C@H]([C@@H](C)O)[C@H]3[C@H]2C)C1.[K+] [Exam. 16]
2. C[C@@H](O)[C@H]1C(=O)N2C(C(=O)[O-])=C(SC3CN([C@@H](C)c4ccccc4)C3)[C@H](C)[C@H]12.[K+] [Exam. 22]
3. COc1ccc(CN2CC(SC3=C(C(=O)[O-])N4C(=O)[C@H]([C@@H](C)O)[C@H]4[C@H]3C)C2)cc1OC.[K+] [Exam. 17]
4. COc1ccc(CN2CC(SC3=C(C(=O)[O-])N4C(=O)[C@H]([C@@H](C)O)[C@H]4[C@H]3C)C2)cc1.[K+] [Exam. 14]
5. C[C@@H](O)[C@H]1C(=O)N2C(C(=O)[O-])=C(SC3CN(Cc4ccccc4)C3)[C@H](C)[C@H]12.[K+] [Exam. 13]

(A)
0.025 µg/mL
0.025 µg/mL
0.049 µg/mL
0.049 µg/mL
0.049 µg/mL

(Q) Give recorded MIC. C[C@@H](O)[C@H]1C(=O)N2C(C(=O)[O-])=C(SC3CN(Cc4ccc(F)cc4)C3)[C@H](C)[C@H]12.[K+] [Exam. 19]
(A) 0.025 µg/mL

###

System: Escherichia coli TEM
Assay: Measurement of Minimum Inhibitory Concentration (MIC)
Format: cell-based
Details: Escherichia coli TEM
Give measured MIC for each item. Keep answers brief.
Numbers only, in µg/mL.

Here is how some compounds turned out for MIC.
>>> reported("COc1ccc(CN2CC(SC3=C(C(=O)[O-])N4C(=O)[C@H]([C@@H](C)O)[C@H]4[C@H]3C)C2)cc1.[K+] [Exam. 14]")
0.195
>>> reported("C[C@@H](O)[C@H]1C(=O)N2C(C(=O)[O-])=C(SC3CN(Cc4ccc(F)cc4)C3)[C@H](C)[C@H]12.[K+] [Exam. 19]")
0.049
>>> reported("COc1ccc(CN2CC(SC3=C(C(=O)[O-])N4C(=O)[C@H]([C@@H](C)O)[C@H]4[C@H]3C)C2)cc1OC.[K+] [Exam. 17]")
0.391
>>> reported("C[C@@H](O)[C@H]1C(=O)N2C(C(=O)[O-])=C(SC3CN(Cc4ccccc4)C3)[C@H](C)[C@H]12.[K+] [Exam. 13]")
0.049
>>> reported("C[C@@H](O)[C@H]1C(=O)N2C(C(=O)[O-])=C(SC3CN([C@@H](C)c4ccccc4)C3)[C@H](C)[C@H]12.[K+] [Exam. 22]")
0.391

Let us move to another entry and its MIC.
(Q) Give recorded MIC. COc1ccccc1CN1CC(SC2=C(C(=O)[O-])N3C(=O)[C@H]([C@@H](C)O)[C@H]3[C@H]2C)C1.[K+] [Exam. 16]
(A) 0.195

###

Assay: Test of Pharmacokinetics in Animals (mice)
Assay type: in vivo
Settings: ICR, mouse, whole blood; mice, SC, 40 mg/kg; read-out: Cmax
ATTRIBUTE_MEASURED: Cmax (ng/mL)
Answers are plain numbers, in ng/mL.

(Q) Give recorded Cmax. C[C@@H](O)[C@H]1C(=O)N2C(C(=O)O)=C(S[C@@H]3CN[C@H](C(=O)N(C)C)C3)[C@H](C)[C@H]12 [Meropenem, reference compound]
(A) 13400
